assay-remarks: Solubility in 50 mM phosphate buffer
Assay type: physicochemical
experimental-parameters: pH 9, aqueous buffer
measured-metric: solubility (µg/mL)
Write the value in µg/mL as a bare number.

What does the record list as solubility for O=C(Nc1c(F)c(F)c(-c2cccc(OC(F)(F)F)c2)c(F)c1F)c1ccsc1C(=O)O ?
833

* * *

assay-remarks: Solubility in 50 mM phosphate buffer
Assay type: physicochemical
experimental-parameters: pH 4, aqueous buffer
measured-metric: solubility (µg/mL)
Answer with a number only, understood to be in µg/mL.

Reported solubility for O=C(Nc1c(F)c(F)c(-c2cccc(OC(F)(F)F)c2)c(F)c1F)c1ccsc1C(=O)O [PP-001] : what is it?
1.4

* * *

assay-remarks: LogP (measured) of PP-001
Assay type: physicochemical
measured-metric: logP
A bare number is all that is needed in reply.

Entry O=C(Nc1c(F)c(F)c(-c2cccc(OC(F)(F)F)c2)c(F)c1F)c1ccsc1C(=O)O : reported logP = ?
4.19

* * *

assay-remarks: pKa of PP-001
Assay type: physicochemical
measured-metric: pKa
Could you respond with only the numeric value?

Given O=C(Nc1c(F)c(F)c(-c2cccc(OC(F)(F)F)c2)c(F)c1F)c1ccsc1C(=O)O [PP-001] , state its recorded pKa.
2.23

* * *

assay-remarks: Oral bioavailability
experimental-parameters: in vivo, depending on formulation used
measured-metric: bioavailability

Consider the compound shown here: O=C(Nc1c(F)c(F)c(-c2cccc(OC(F)(F)F)c2)c(F)c1F)c1ccsc1C(=O)O What is its recorded bioavailability?
15 to 30%

* * *

assay-remarks: Thermodynamic solubility in FaSSIF
Type: physicochemical
experimental-parameters: FaSSIF, 25 °C, pH 6.4, fassif, thermodynamic from solid, FaSSIF, 25° C., 24 hours; read-out: Thermodynamic solubility (TS) in FaSSIF
measured-metric: solubility thermodynamic at 24 h (µg/mL)
Enter your answer as a number in µg/mL; do not include the unit.

Request the reported solubility thermodynamic at 24 h associated with O=C(Nc1c(F)c(F)c(-c2cccc(OC(F)(F)F)c2)c(F)c1F)c1ccsc1C(=O)O [Form A]
760
